target-or-system: human mu opioid receptor (Homo sapiens)
Construct: expressed in transfected cells; host or cells: CHO cells
Sequence (P35372 whole entry): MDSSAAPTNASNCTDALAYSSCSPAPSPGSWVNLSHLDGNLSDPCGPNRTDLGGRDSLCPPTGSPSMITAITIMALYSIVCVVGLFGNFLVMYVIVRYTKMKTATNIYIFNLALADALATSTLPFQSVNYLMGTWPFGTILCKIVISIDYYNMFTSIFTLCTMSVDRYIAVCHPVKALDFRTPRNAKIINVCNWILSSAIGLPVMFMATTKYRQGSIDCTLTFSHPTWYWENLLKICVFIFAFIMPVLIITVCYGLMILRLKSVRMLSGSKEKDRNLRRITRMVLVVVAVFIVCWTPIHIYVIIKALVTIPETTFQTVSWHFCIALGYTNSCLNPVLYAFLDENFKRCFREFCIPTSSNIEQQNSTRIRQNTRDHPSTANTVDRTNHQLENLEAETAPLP
assay-notes: cell-based
experimental-setup: read-out: EC50, mu opioid receptor
Doc: threshold 4 µM (exclusive). Items with EC50 beneath it return Condition met; others return Condition not met.

For orientation, consider the following solved cases.
| molecule | target-or-system | class-label |
| --- | --- | --- |
| COCCOCCOCCOC1CCC2(O)C3Cc4ccc(OC)c5c4C2(CCN3C)C1O5 (stereo not drawn) [α-6-mPEG3-O-hydroxycodone, α-6-mPEG3-O-oxycodone] | human mu opioid receptor (Homo sapiens) | Condition met |
| COc1ccc2c3c1OC1C(O)CCC4(O)C(C2)N(C)CCC314 (stereo not drawn) [Hydroxycodone, α-6-hydroxycodone, reference compound] | human mu opioid receptor (Homo sapiens) | Condition met |
| COCCOCCOCCOCCOCCOCCOCCOC1C=CC2C3Cc4ccc(OC)c5c4C2(CCN3C)C1O5 (stereo not drawn) | human mu opioid receptor (Homo sapiens) | Condition not met |

Q) I'd appreciate it if you could check whether COCCOCCOCCOCCOCCOCCOCCOCCOCCOC1C=CC2C3Cc4ccc(O)c5c4C2(CCN3C)C1O5 (stereo not drawn) has EC50 smaller than 4 µM.
A) Condition met

Q) Likewise for COCCOCCOC1CCC2(O)C3Cc4ccc(OC)c5c4C2(CCN3C)C1O5 (stereo not drawn) [α-6-mPEG2-O-hydroxycodone, α-6-mPEG2-O-oxycodone] ?
A) Condition not met

Q) Next molecule: COCCOC1CCC2(O)C3Cc4ccc(OC)c5c4C2(CCN3C)C1O5 (stereo not drawn) [α-6-mPEG1-O-hydroxycodone, α-6-mPEG1-O-oxycodone]
A) Condition met
